Here the recorded IC50 is given for each entry.
molecular target: KRAS G12C (Homo sapiens, UniProt P01116, G12C); experiment: GDP-GTP exchange assay (KRAS_G12C exchange assay); details: bodipy-loaded KRAS G12C 2.5 nM, SOS1 150 nM, 2 hours pre-incubation with inhibitor; read-out: G12C_exchange
Sequence (P01116 1-188 isoform P01116-2 G12C): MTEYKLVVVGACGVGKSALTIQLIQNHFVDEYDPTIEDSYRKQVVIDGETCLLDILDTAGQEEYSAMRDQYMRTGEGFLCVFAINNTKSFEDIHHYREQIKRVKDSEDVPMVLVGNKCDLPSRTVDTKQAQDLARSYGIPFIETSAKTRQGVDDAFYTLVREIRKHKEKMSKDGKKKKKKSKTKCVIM

compound	property name	result
CN(C)C1(C)CN(c2nc3c(F)c(-c4ccc(F)c5cccnc45)c(C(F)(F)F)cc3c3c2nnn3[C@H]2CCN(C(=O)/C=C/CF)[C@H](CC#N)C2)C1 (single isomer, unassigned) [Example 1a]	IC50	≤ 50 nM
Cc1ccc(-c2c(C)cc3c(nc(O[C@@H](C)[C@@H]4CCCN4C)c4nnn([C@H]5CCN(C(=O)/C=C/CF)[C@H](CC#N)C5)c43)c2F)cn1 [Example 8]	IC50	≤ 50 nM
COC/C=C/C(=O)N1CC[C@H](n2nnc3c(O[C@@H](C)[C@@H]4CCCN4C)nc4c(F)c(-c5nn(C)c6ccccc56)c(C)cc4c32)C[C@H]1CC#N [Example 9]	IC50	≤ 50 nM
C=CC(=O)N1CCC(n2nnc3c(O[C@@H](C)[C@@H]4CCCN4C)nc4c(F)c(-c5cccc6c5c(CC#N)cn6C)c(C)cc4c32)CC1 (single isomer, unassigned) [Example 32a]	IC50	50 to 100 nM

May I ask what IC50 has been recorded for C=C(F)C(=O)N1CC[C@H](n2nnc3c(N4CC(N(C)CC)C4)nc4c(F)c(-c5c(C)c(C)cc6[nH]ncc56)c(C)cc4c32)C[C@H]1CC#N (single isomer, unassigned) [Example 15b] ?
100 to 1000 nM

May I ask what IC50 has been recorded for COC/C=C/C(=O)N1CC[C@H](n2nnc3c(N4CC(C)(N(C)C)C4)nc4c(F)c(-c5ccc(F)c6cccnc56)c(C(F)(F)F)cc4c32)C[C@H]1CC#N (single isomer, unassigned) [Example 20] ?
≤ 50 nM

May I ask what IC50 has been recorded for COC/C=C/C(=O)N1CC[C@H](n2nnc3c(O[C@@H](C)[C@@H]4CCCN4C)nc4c(F)c(-c5ccc(F)cc5)c(C)cc4c32)C[C@H]1CC#N [Example 10] ?
≤ 50 nM

May I ask what IC50 has been recorded for C=CC(=O)N1CCC(n2nnc3c(O[C@@H](C)[C@@H]4CCCN4C)nc4c(F)c(-c5cccc6c5c(CC#N)cn6C)c(C)cc4c32)CC1 (single isomer, unassigned) [Example 32b] ?
≤ 50 nM

May I ask what IC50 has been recorded for COC/C=C/C(=O)N1CC[C@H](n2nnc3c(O[C@@H](C)[C@@H]4CCCN4C)nc4c(F)c(-c5ncc(F)c6ccccc56)c(C)cc4c32)C[C@H]1CC#N [Example 21] ?
≤ 50 nM

* * *

experiment: Human whole blood stability; assay type: in vitro ADME; settings: percent remaining at 4 hr, 1 μM, 37° C.

compound	Human whole blood stability at 4 hr
COC/C=C/C(=O)N1CC[C@H](n2nnc3c(O[C@@H](C)[C@@H]4CCCN4C)nc4c(F)c(-c5cnc(C)c6ccccc56)c(C)cc4c32)C[C@H]1CC#N (single isomer, unassigned) [Example 26b]	†† (WBS >70% but ≤90%)
C=CC(=O)N1CC[C@H](n2nnc3c(O[C@@H](C)[C@@H]4CCCN4C)nc4c(F)c(-c5cccc6c5c(CC#N)nn6C)c(C)cc4c32)C[C@H]1C (single isomer, unassigned) [Example 28b]	†† (WBS >70% but ≤90%)
